Tested on: DeltatarO mutant
METHOD: S. aureus survival, RN4220 and DeltatarO strains – OD600, teichoic acid synthesis inhibitors, primary screen (AID 463173)
TEST PARAMETERS: S. aureus RN4220 wild type/DeltatarO growth, OD600, 18 h, active compounds read low, screened at 18.75 µg/mL (by protocol)
Screen size: about 52,000 compounds; about 4,300 (8.3%) were called active. The list comes from a sample in which actives are over-represented; it also holds close analogues and randomly drawn compounds.
Using survival as the sorting value, the categories are low: < 80%; moderate: ≥ 80% and < 90%; high: ≥ 90%

COMPOUND	DISCRETE LABEL
Cc1ccc(Cl)cc1N1CCN(c2nc3ccccc3c3nc(-c4cccnc4)nn23)CC1	high
CCC(=O)N1CCc2cc(OC)c(OC)cc2C1COc1ccc2c(C)cc(=O)oc2c1 (stereo not given)	high
Cc1cccc(C(=O)Nc2sc3c(c2C(=O)NCc2ccco2)CCCC3)c1	moderate
Cc1cccc(C(=O)Nc2sc3c(c2C(=O)NC(C)C)CCCC3)c1	low
COc1ccc(NCc2cccn2-c2nnc(N3CCC(C)CC3)s2)c(OC)c1	low
CCc1cccc(N2C(=O)CSC23C(=O)Nc2ccccc23)c1 (stereo not given)	moderate
CCOc1ccc(OCC)c(Nc2nc3ccc(Cl)cc3n3cnnc23)c1	low
O=C(Cn1c(=O)c2cc(Cl)ccc2n2nncc12)Nc1ccccc1	low
Cc1cccc(NC(=O)C(NS(=O)(=O)c2cccc3nsnc23)c2ccccc2)c1C (stereo not given)	high

###

Tested on: DeltatarO mutant
METHOD: S. aureus survival, RN4220 and DeltatarO strains – OD600, teichoic acid synthesis inhibitors, primary screen (AID 463173)
TEST PARAMETERS: S. aureus RN4220 wild type/DeltatarO growth, OD600, 18 h, screened at 18.75 µg/mL (by protocol)
Among all 52,000 compounds or so, about 4,300 (8.3%) were called active. No stated cut-off is given here; in the data, active means survival mostly below about 52% (no sharp cut-off); inactive means mostly above about 56%. Only a selection was taken, and actives are over-represented in it overall.
Outcomes: active, inactive

COMPOUND	DISCRETE LABEL
COc1ccc(OCCCn2c(=O)oc3ccc(C)cc32)cc1	inactive
Cc1c(Cl)cccc1NC(=O)NCCOCCn1c(=O)oc2ccccc21	inactive
O=C(O)CCCn1c(=O)oc2ccccc21	inactive
Cc1ccc2oc(=O)n(CCCOc3ccccc3Cl)c2c1	active
O=C(NCCc1ccccc1)c1cc2sccc2n1Cc1ccc(F)cc1	inactive
Cc1ccc2oc(=O)n(CCCOc3ccc(Cl)cc3)c2c1	active
COc1ccc2c(c1)CC(C(=O)Nc1ccc(Br)c(C)c1)CO2 (configuration not stated)	inactive
Cc1ccc2oc(=O)n(CCNC(=O)Nc3ccc(C)c(F)c3)c2c1	inactive
CCc1ccc(NC(=O)CSC2=Nc3ccccc3C3=NC(CC(=O)NC4CCCCC4)C(=O)N23)cc1 (configuration not stated)	inactive
CC(C)Oc1ccc(CNC(=O)c2ccc3c(c2)N(C)C(=O)C2CCCCN32)cc1 (configuration not stated)	active
CCOC(=O)Cn1cnc2onc(-c3ccc(F)cc3)c2c1=O	inactive
O=C1C(c2ccc(C(F)(F)F)cc2)=C(Nc2ccc(Cl)cc2)c2ccccc21	inactive
COc1cccc(CNC(=O)c2ccc3c(c2)N(C)C(=O)C2CCCCN32)c1 (configuration not stated)	inactive
O=c1oc2ccccc2n1CCCOc1ccccc1Cl	active
Cc1ccc(NC2=C(c3ccc(C(F)(F)F)cc3)C(=O)c3ccccc32)cc1F	active
CCCCOc1ccc(CNC(=O)c2ccc3c(c2)N(C)C(=O)C2CCCCN32)cc1 (configuration not stated)	inactive
CCC1CCCCN1CCCNC(=O)c1cc2c(Cl)nc3ccc(C)cc3c2s1 (configuration not stated)	inactive
Cc1ccc(NC2=C(c3ccc(C(F)(F)F)cc3)C(=O)c3ccccc32)cc1C	inactive
Cc1cccc(CNC(=O)c2ccc3c(c2)N(C)C(=O)C2CCCCN32)c1 (configuration not stated)	active
COc1ccc(C2=C(Nc3ccc(C)cc3C)c3ccccc3C2=O)cc1	inactive
COc1ccc(CNC(=O)c2ccc3c(c2)N(C)C(=O)C2CCCCN32)cc1OC (configuration not stated)	inactive
CSc1ccc(CNC(=O)c2ccc3c(c2)N(C)C(=O)C2CCCCN32)cc1 (configuration not stated)	inactive

Where do these numbers come from? They come from PubChem BioAssay AID463173.
